Target: coupled enzyme system (ScAMD, CjIMPDH, diaphorase)
Assay: Control: inhibition of the coupled enzyme system used to detect AMP production
Conditions: read-out: IC50 on coupled enzyme system, without XcMetRS step
pIC50: −log10 of the molar value.

querySmiles: O=c1cc(NCCCN[C@@H]2CCOc3c(Br)cc(Br)cc32)[nH]c2ccsc12
pIC50: 4.58
